# pEC50 values compiled below
biological target: T1, human Tissue Factor on human TF-positive cells (human, UniProt P13726 33-295); assay: flow cytometry, antibody titration on HCT-116 cells (endogenous human TF), 4-parameter fit of MFI
T1 construct: also called hTF; CD142
On this scale, pEC50 is minus log10 of a concentration expressed in M (mol/L).

Recorded results for 3 binders are shown here.
{"columns": ["binder", "pEC50"],
 "data": [
  ["43B (antibody, human IgG1, V domains shown, Human IgG1; also called antibody designated 43B) VH: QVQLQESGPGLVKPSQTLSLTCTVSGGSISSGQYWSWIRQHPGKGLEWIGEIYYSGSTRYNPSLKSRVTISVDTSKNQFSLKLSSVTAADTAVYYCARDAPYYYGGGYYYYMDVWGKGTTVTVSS VL: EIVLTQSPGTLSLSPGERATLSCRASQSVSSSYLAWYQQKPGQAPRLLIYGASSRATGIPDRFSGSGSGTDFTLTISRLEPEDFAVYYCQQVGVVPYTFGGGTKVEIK", 9.25],
  ["43D (antibody, human IgG1, V domains shown, Human IgG1; also called antibody designated 43D) VH: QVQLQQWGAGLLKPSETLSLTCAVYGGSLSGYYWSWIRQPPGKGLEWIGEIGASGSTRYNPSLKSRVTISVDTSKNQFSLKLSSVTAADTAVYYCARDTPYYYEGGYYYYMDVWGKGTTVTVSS VL: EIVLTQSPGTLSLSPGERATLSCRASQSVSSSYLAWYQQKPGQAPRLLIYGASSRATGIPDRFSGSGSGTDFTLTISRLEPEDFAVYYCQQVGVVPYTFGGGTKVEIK", 9.83],
  ["43B7 (antibody, human IgG1, V domains shown, Human IgG1; also called antibody designated 43B7) VH: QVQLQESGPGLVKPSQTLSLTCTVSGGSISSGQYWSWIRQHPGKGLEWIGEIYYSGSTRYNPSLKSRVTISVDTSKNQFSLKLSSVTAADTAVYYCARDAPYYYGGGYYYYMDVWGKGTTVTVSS VL: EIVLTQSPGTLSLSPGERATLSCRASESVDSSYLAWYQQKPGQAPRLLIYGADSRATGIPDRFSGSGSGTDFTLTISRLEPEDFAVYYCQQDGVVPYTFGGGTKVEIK", 9.59]
]}

In the following, a different binder is considered.
Which pEC50 reading was recorded for the binder 54E (antibody, human IgG1, V domains shown, Human IgG1; also called antibody designated 54E) VH: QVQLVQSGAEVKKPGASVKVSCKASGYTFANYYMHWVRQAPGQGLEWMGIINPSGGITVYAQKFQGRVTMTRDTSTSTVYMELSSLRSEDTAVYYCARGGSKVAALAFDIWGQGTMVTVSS VL: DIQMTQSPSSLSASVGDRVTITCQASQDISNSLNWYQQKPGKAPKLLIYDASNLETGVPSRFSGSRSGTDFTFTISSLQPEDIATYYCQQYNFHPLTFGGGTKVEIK ?
9.62
